System: SF-539 CNS
Assay Explanation: NCI-60 one-dose screen, 48 h (100 = growth as untreated, 0 = no growth, -100 = all killed)
Condition Details: 10 µM
This is part of a sample that, as a whole, favours compounds with a hit. Of some 83,000 tested, about 20% had one in any assay. The source made the active and inactive calls. Rule for the calls: active = growth percent below 10; inactive = the rest.
Assay Metric: growth

Some solved entries appear below for comparison.
Q: Observed growth on SF-539 CNS for COc1cc(-c2nc3ccc(C)cc3[nH]2)ccc1OCc1nnc(-c2ccccc2Br)o1 , please.
Result: 24.4% (inactive)

Q: Observed growth on SF-539 CNS for O=C(Nc1ccc(Oc2ncnc3scc(Nc4n[nH]c(=S)s4)c23)cc1)C1(C(=O)Nc2cccc(C(F)(F)F)c2)CC1 , please.
Result: 96.1% (inactive)

Q: Observed growth on SF-539 CNS for O=C(CC(=O)Nc1ccc(Oc2ncnc3scc(Nc4n[nH]c(=S)s4)c23)cc1)Nc1ccc(Cl)cc1 , please.
Result: 91.6% (inactive)

Q: Observed growth on SF-539 CNS for O=[N+]([O-])c1cccc(-c2nnc3c(/C=C/c4ccccc4O)nc4ccccc4n23)c1 , please.
Result: 46.2% (inactive)

Q: Observed growth on SF-539 CNS for COc1ccc(C(=O)COc2ccc(NC(=O)Nc3ccccc3)cc2)cc1 , please.
Result: 97% (inactive)

Continuing:
Q: Observed growth on SF-539 CNS for O=C(Nc1ccc(OCc2ccc(Cl)cc2)cc1)Nc1ccc(Cl)c(C(F)(F)F)c1 , please.
Result: 7.92% (active)

Q: Observed growth on SF-539 CNS for Cn1cc(-c2nnc(N)nc2-c2c[nH]c3ccccc23)c2cc(Br)cnc21 , please.
Result: 50.2% (inactive)

Q: Observed growth on SF-539 CNS for COC(=O)CNC(=O)COc1c(OC)c(OC)cc2oc(-c3cccc(C(=O)Nc4ccc(Cl)cc4)c3)cc(=O)c12 , please.
Result: 16% (inactive)

====

System: MDA-MB-468 breast
Assay Explanation: NCI-60 one-dose screen, 48 h (100 = growth as untreated, 0 = no growth, -100 = all killed)
Condition Details: 10 µM unless noted
This is part of a sample that, as a whole, favours compounds with a hit. Of some 83,000 tested, about 20% had one in any assay.
One threshold, 10%, splits the recorded growth values: lower ones are MET, equal or higher ones are NOT MET.

Q: Strictly below 10%: is that where growth of CCCCCC(=C/c1ccccc1)/C=N/N=C(N)N sits?
Result: MET

Q: Strictly below 10%: is that where growth of C#CCn1cc(C=C2C(=O)NC(=S)NC2=O)c2cc(Cl)ccc21 sits?
Result: NOT MET

====

Test system: MDA-MB-468 breast
Assay Explanation: NCI-60 one-dose screen, 48 h
Condition Details: 10 µM unless noted
This is part of a sample that, as a whole, favours compounds with a hit. Of some 83,000 tested, about 20% had one in any assay. Active and inactive are the calls of the source. How the source made its calls: active means growth percent below 10; inactive means the rest.
Answer with one of the outcomes given here: yes (1) for active, no (0) for inactive

Observe how each entry below is paired with its result.
Q: Assay result, entry CC(C)(CCCN=C(N)Nc1ccc(Cl)cc1)c1ccc(F)cc1 — outcome?
Result: no (0)

Q: Assay result, entry O=C1C=C(O)C(=O)C=C1O — outcome?
Result: no (0)

Q: Assay result, entry COC(=O)c1nc(-c2ccccc2)oc1S(=O)(=O)NCC(c1ccc(Cl)cc1)N1CCCCC1 (stereo unspecified) — outcome?
Result: no (0)

Q: Assay result, entry N#Cc1c(NC(=O)c2ccccc2C(F)(F)F)sc2c1CCC(=O)C2 — outcome?
Result: yes (1)

Q: Assay result, entry O=C1/C(=C/c2ccccc2O)C(=S)SN1Cc1ccco1 — outcome?
Result: no (0)

Q: Assay result, entry CC(Cc1ccco1)C(=O)NC(N)=O (stereo unspecified) — outcome?
Result: no (0)

Q: Assay result, entry CC(C)COC(=O)COC(=O)OCCOCCOC(=O)OCC(=O)OCC(C)C — outcome?
Result: no (0)

Q: Assay result, entry COC(=O)c1cc(-c2ccc(Cl)c(Cl)c2)[nH]c(=O)c1C#N — outcome?
Result: no (0)

Continuing:
Q: Assay result, entry O=C1N=c2ccccc2=C1c1sc(=S)n(C2CC(=O)N(c3ccc(Cl)cc3)C2=O)c1O (stereo unspecified) — outcome?
Result: no (0)

Q: Assay result, entry O=C(/C=C/c1cn(-c2ccccc2)nc1-c1ccc([N+](=O)[O-])cc1)c1ccc(Cl)cc1 — outcome?
Result: no (0)

====

Test system: MDA-MB-468 breast
Assay Explanation: NCI-60 one-dose screen, 48 h
Condition Details: 10 µM unless noted
This is part of a sample that, as a whole, favours compounds with a hit. Of some 83,000 tested, about 20% had one in any assay. Activity calls are given as the source filed them. The calls were made as follows: active = growth percent below 10; inactive = the rest.
Answer with one of the outcomes given here: 1 = active, -1 = inactive

Q: Assay result, entry FC(F)(F)C1=NNC(c2ccc3ccccc3c2)=NN1 — outcome?
Result: -1

Q: Assay result, entry COc1cccc(Nc2ncnc3cc(NC(=O)CCl)ccc23)c1 — outcome?
Result: 1

Q: Assay result, entry CON1CCC[C@]2(C)[C@H]3CC[C@@H]4[C@H]5[C@@H](O)C(C)(C)CC[C@]5(CO)CC[C@@]4(C)[C@]3(C)CC[C@H]2C1(C)C — outcome?
Result: -1

Q: Assay result, entry COc1cccc2c1C(=O)c1c(O)c3c(c(O)c1C2=O)C[C@@](O)(C(=O)CO)C[C@@H]3OC1CC(OC(C)=O)C(OC(C)=O)C(C)O1 (stereo not given in full) — outcome?
Result: 1

Q: Assay result, entry Cc1nc2c(c(-c3ccccc3)n1)Cc1c(ccc3ccccc13)O2 — outcome?
Result: -1

====

# Lookup of reported growth keyed by entry
Test system: CAKI-1 renal
Assay Explanation: NCI-60 one-dose screen, 48 h (100 = growth as untreated, 0 = no growth, -100 = all killed)
Condition Details: 10 µM
This is part of a sample that, as a whole, favours compounds with a hit. Of some 83,000 tested, about 20% had one in any assay.
# number only, unit % dropped from output

Q: What value of growth has been recorded for this entry: Cc1ccc2c(c1)C(=O)/C(=C/c1ccc([N+](=O)[O-])cc1)S2
Result: 61.9

Q: What value of growth has been recorded for this entry: COc1cc2oc(-c3cccc(C(=O)Nc4ccc(Cl)cc4)c3)cc(=O)c2c(OCCNC(=O)[C@@H](N)CO)c1OC
Result: 45.9

Q: What value of growth has been recorded for this entry: Cn1cc(-c2cc3nc(-c4c[nH]c5ccccc45)cc(N)n3n2)c2cc(Cl)ccc21
Result: -98.7

Q: What value of growth has been recorded for this entry: Cn1cc(-c2nnc(N)nc2-c2c[nH]c3ccc(F)cc23)c2cc(Br)cnc21
Result: 37.4

Q: What value of growth has been recorded for this entry: CCOc1ccc(/C=N/NC(=O)Cn2nc(Cc3ccc(OC)cc3)c3onc(C)c3c2=O)cc1
Result: 5.68

Q: What value of growth has been recorded for this entry: COc1cccc(C(=O)CSc2nc(-c3ccc(OCc4ccccc4)c(OC)c3)c(C#N)c(=O)[nH]2)c1
Result: 90.8

Q: What value of growth has been recorded for this entry: Cn1cc(/C=C(/SS/C(=C/c2cn(C)c3cccc(C(=O)O)c23)C(=O)O)C(=O)O)c2c(C(=O)O)cccc21
Result: 87.9

Q: What value of growth has been recorded for this entry: O=C(c1ccc(F)cc1)C(c1c[nH]c2ccccc12)c1c[nH]c2ccccc12
Result: 31.5

Q: What value of growth has been recorded for this entry: CCn1c(SCC(=O)Nc2ccc(-c3nc4ccccc4[nH]3)cc2)nc2ccccc2c1=O
Result: -99.2

====

Test system: MDA-MB-468 breast
Assay Explanation: NCI-60 one-dose screen, 48 h
Condition Details: 10 µM unless noted
This is part of a sample that, as a whole, favours compounds with a hit. Of some 83,000 tested, about 20% had one in any assay. Activity calls are given as the source filed them. How the source made its calls: active means growth percent below 10; inactive means the rest.
Answer with one of the outcomes given here: active, inactive

Observe how each entry below is paired with its result.
Q: Assay result, entry Cc1cc2c(-c3nc4ccccc4[nH]3)c(O)c(O)cc2c(O)c1-c1c(C)cc2c(-c3nc4ccccc4[nH]3)c(O)c(O)cc2c1O — outcome?
Result: active

Q: Assay result, entry O=C(CCN1C(=O)/C(=C/c2ccc(O)cc2)SC1=S)Nc1ccc(Cl)cc1 — outcome?
Result: inactive

Q: Assay result, entry O=C(Nc1ccc2ncsc2c1)c1csc(Nc2ccc3[nH]ncc3c2)n1 — outcome?
Result: inactive

Q: Assay result, entry O=C1NC(=O)N(Cc2ccccc2)CC1Br (stereo not given) — outcome?
Result: inactive

Q: Assay result, entry CCCCC(O)c1ccccc1 (stereo not given) — outcome?
Result: inactive

Q: Assay result, entry CCn1cc(C(=O)O)c(=O)c2cc(F)c(N3CCNCC3)cc21 — outcome?
Result: inactive

Continuing:
Q: Assay result, entry COc1ccc(/C=C2\COc3ccc(O)c(O)c3C2=O)c(OC)c1OC — outcome?
Result: active

Q: Assay result, entry O=S(=O)(NCCNc1nccc(-c2c(-c3ccc(F)c(O)c3)nc3sccn23)n1)c1ccccc1 — outcome?
Result: inactive

Q: Assay result, entry CCOC(=O)c1ccc2[nH]c(-c3ccccc3)cc(=O)c2c1 — outcome?
Result: inactive

Q: Assay result, entry COc1ccc(Cn2cc(Cn3c(=O)c(-c4nc5ccccc5[nH]4)cc4ccccc43)nn2)c(OC)c1OC — outcome?
Result: inactive

Q: Assay result, entry Cc1ccc(S(=O)(=O)Oc2ccc3sc4cccc(NCCN(C)C)c4c(=O)c3c2)cc1 — outcome?
Result: active

Q: Assay result, entry COc1cc2cc3c(nc2cc1OC)CCN3Cc1ccc(NC(=O)c2ccc(Cl)c(C(F)(F)F)c2)cc1 — outcome?
Result: inactive

Q: Assay result, entry Cc1cc(NCCCNc2ccnc3cc(Cl)ccc23)nc(N2CCN(C)CC2)n1 — outcome?
Result: inactive

Q: Assay result, entry C=C(C)[C@@H]1CC[C@]2(C(=O)NCCNCCN)CC[C@]3(C)[C@H](CC[C@@H]4[C@@]5(C)C/C(=C/c6ccncc6)C(=O)C(C)(C)[C@@H]5CC[C@]43C)[C@@H]12 — outcome?
Result: inactive

Q: Assay result, entry CCCCCCCCCCCCCCCCCCOc1ccccc1CC(=O)OCC[N+]1(C)CCCCC1 — outcome?
Result: active

Q: Assay result, entry Cn1c(/C=C(\C#N)c2ccccc2)nc2c(N3CCOCC3)nc(Cl)nc21 — outcome?
Result: active

Q: Assay result, entry COc1ccc(N2CCC(=S)NC2=S)cc1 — outcome?
Result: inactive

Q: Assay result, entry Fc1ccc2[nH]c3c(NCCCN4CCOCC4)ncnc3c2c1 — outcome?
Result: inactive

Q: Assay result, entry CN(Cc1ccccc1)c1nc(Cl)c(C2CC(c3ccc(Cl)cc3)=NN2c2cc(Cl)cc(Cl)c2)s1 (stereo not given) — outcome?
Result: inactive

Q: Assay result, entry COC(CCCl)c1ccc(Cl)cc1 (stereo not given) — outcome?
Result: inactive
